Residues, ends and D or L forms follow the SMILES beside them.
experimental-endpoint: IC50 (µM)
Enter your answer as a number in µM; do not include the unit.

Lookup: IC50 / full-length NDM-1 (Klebsiella pneumoniae) / N[C@@H](CS)C(=O)N[C@@H](Cc1c[nH]cn1)C(=O)O [Oligopeptide 1, Cys-His] (H-Cys-His-OH)
182

Lookup: IC50 / full-length NDM-1 (Klebsiella pneumoniae) / N[C@@H](CS)C(=O)NCC(=O)N[C@@H](Cc1c[nH]cn1)C(=O)O [Oligopeptide 6, Cys-Gly-His] (H-Cys-Gly-His-OH)
263

Lookup: IC50 / full-length NDM-1 (Klebsiella pneumoniae) / N[C@@H](CS)C(=O)N[C@@H](Cc1ccccc1)C(=O)O [Oligopeptide 2, Cys-Phe] (H-Cys-Phe-OH)
113

Lookup: IC50 / full-length NDM-1 (Klebsiella pneumoniae) / N[C@@H](CS)C(=O)NCC(=O)N[C@@H](Cc1ccccc1)C(=O)O [Oligopeptide 7, Cys-Gly-Phe] (H-Cys-Gly-Phe-OH)
144

Lookup: IC50 / full-length NDM-1 (Klebsiella pneumoniae) / N[C@@H](CS)C(=O)N[C@@H](CC(=O)O)C(=O)O [Oligopeptide 5, Cys-Asp] (H-Cys-Asp-OH)
68

Lookup: IC50 / full-length NDM-1 (Klebsiella pneumoniae) / CC(C)[C@H](NC(=O)[C@@H](N)CS)C(=O)O [Oligopeptide 4, Cys-Val] (H-Cys-Val-OH)
235

Lookup: IC50 / full-length NDM-1 (Klebsiella pneumoniae) / CC(C)[C@H](NC(=O)CNC(=O)[C@@H](N)CS)C(=O)O [Oligopeptide 9, Cys-Gly-Val] (H-Cys-Gly-Val-OH)
249

----------
Consider the following compounds; for each one, report its MIC.
- Tested on: E. coli BL21 (DE3)
Enter your answer as a number in µg/mL; do not include the unit.

Give its MIC value. Item: `CO/N=C(\C(=O)N[C@@H]1C(=O)N2C(C(=O)O)=C(COC(N)=O)CS[C@H]12)c1ccco1`
2

Give its MIC value. Item: `CC1(C)S[C@@H]2[C@H](NC(=O)[C@H](N)c3ccccc3)C(=O)N2[C@H]1C(=O)O`
6

Give its MIC value. Item: CO/N=C(\C(=O)N[C@@H]1C(=O)N2C(C(=O)[O-])=C(C[N+]3(C)CCCC3)CS[C@H]12)c1csc(N)n1 [Cefepime]
0.08

Give its MIC value. Item: `C[C@H]1[C@H](NC(=O)/C(=N\OC(C)(C)C(=O)O)c2csc(N)n2)C(=O)N1S(=O)(=O)O`
0.047

Give its MIC value. Item: `CC(=O)OCC1=C(C(=O)O)N2C(=O)[C@@H](NC(=O)Cc3cccs3)[C@H]2SC1`
6

Give its MIC value. Item: `CO/N=C(\C(=O)N[C@@H]1C(=O)N2C(C(=O)O)=C(COC(C)=O)CS[C@H]12)c1csc(N)n1`
0.125

Give its MIC value. Item: `C[C@@H](O)[C@H]1C(=O)N2C(C(=O)O)=C(S[C@@H]3CN[C@H](C(=O)Nc4cccc(C(=O)O)c4)C3)[C@H](C)[C@H]12`
0.094

----------
pIC50: −log10 of the molar value. Residues, ends and D or L forms follow the SMILES beside them.
experimental-endpoint: pIC50

Lookup: pIC50 / full-length NDM-1 (Klebsiella pneumoniae, UniProt C7C422) / N[C@@H](CS)C(=O)N[C@@H](Cc1ccc(O)cc1)C(=O)O [Oligopeptide 3, Cys-Tyr] (H-Cys-Tyr-OH)
< 3.52

Lookup: pIC50 / full-length NDM-1 (Klebsiella pneumoniae, UniProt C7C422) / N[C@@H](CS)C(=O)NCC(=O)N[C@@H](Cc1ccc(O)cc1)C(=O)O [Oligopeptide 8, Cys-Gly-Tyr] (H-Cys-Gly-Tyr-OH)
< 3.52

Lookup: pIC50 / full-length NDM-1 (Klebsiella pneumoniae, UniProt C7C422) / N[C@@H](CS)C(=O)NCC(=O)N[C@@H](CC(=O)O)C(=O)O [Oligopeptide 10, Cys-Gly-Asp] (H-Cys-Gly-Asp-OH)
< 3.52
